Each entry below lists one item and its recorded EC50 value.
- Tested on: SK-MEL-2
- TEST: Cytotoxicity against human SK-MEL-2 cells by SRB method
- Assay type: functional
- MEASUREMENT_CONTEXT: read-out: ED50 (the source's name)
QUANTITY_KIND: EC50 (µg/mL)

>>> numeric_value("CO[C@@H]1[C@@H](O)[C@H](O[C@@H]2[C@@H](O)[C@H](O[C@H]3[C@H](O)[C@@H](O)[C@H](O[C@H]4[C@H](O[C@H]5CC[C@]6(C)[C@@H]7CC[C@]89C(=O)O[C@@](C)(CCC=C(C)C)[C@@]8(O)[C@@H](OC(C)=O)C[C@@]9(C)C7=CC[C@H]6C5(C)C)OC[C@@H](OS(=O)(=O)[O-])[C@@H]4O)O[C@@H]3CO)OC[C@H]2O)O[C@H](CO)[C@H]1O.[Na+] [INTERCEDENSIDE F]")
2.1
>>> numeric_value("CO[C@@H]1[C@@H](O)[C@H](O[C@@H]2[C@@H](O)[C@H](O[C@H]3[C@H](O)[C@@H](O)[C@H](O[C@H]4[C@H](O[C@H]5CC[C@]6(C)[C@@H]7CC[C@]89C(=O)O[C@@](C)(/C=C\\C=C(C)C)[C@@]8(O)[C@@H](OC(C)=O)C[C@@]9(C)C7=CC[C@H]6C5(C)C)OC[C@@H](OS(=O)(=O)[O-])[C@@H]4O)O[C@@H]3CO)OC[C@H]2O)O[C@H](CO)[C@H]1O.[Na+] [LNTERCEDENSIDE D]")
4.2
>>> numeric_value("CO[C@@H]1[C@@H](O)[C@H](O[C@@H]2[C@@H](O)[C@H](O[C@@H]3CO[C@@H](O[C@H]4[C@H](O[C@H]5CC[C@]6(C)[C@@H]7CC[C@]89C(=O)O[C@@](C)(/C=C\\C=C(C)C)C8[C@@H](OC(C)=O)C[C@@]9(C)C7=CC[C@H]6C5(C)C)OC[C@@H](OS(=O)(=O)[O-])[C@@H]4O)[C@H](O)[C@H]3O)OC[C@H]2O)O[C@H](CO)[C@H]1O.[Na+] (stereo partly drawn) [LNTERCEDENSIDE G]")
2.4

---

- TEST: Cytotoxicity against human U87MG cells by SRB method
- Assay type: functional, U-87MG ATCC
- MEASUREMENT_CONTEXT: U-87 MG, read-out: ED50 (the source's name)
Each entry below lists one item and its recorded EC50 value.
QUANTITY_KIND: EC50 (µg/mL)

>>> numeric_value("CO[C@@H]1[C@@H](O)[C@H](O[C@@H]2[C@@H](O)[C@H](O[C@H]3[C@H](O)[C@@H](O)[C@H](O[C@H]4[C@H](O[C@H]5CC[C@]6(C)[C@@H]7CC[C@]89C(=O)O[C@@](C)(CCC=C(C)C)[C@@]8(O)[C@@H](OC(C)=O)C[C@@]9(C)C7=CC[C@H]6C5(C)C)OC[C@@H](OS(=O)(=O)[O-])[C@@H]4O)O[C@@H]3CO)OC[C@H]2O)O[C@H](CO)[C@H]1O.[Na+] [INTERCEDENSIDE F]")
3.3
>>> numeric_value("CO[C@@H]1[C@@H](O)[C@H](O[C@@H]2[C@@H](O)[C@H](O[C@@H]3CO[C@@H](O[C@H]4[C@H](O[C@H]5CC[C@]6(C)[C@@H]7CC[C@]89C(=O)O[C@@](C)(/C=C\\C=C(C)C)C8[C@@H](OC(C)=O)C[C@@]9(C)C7=CC[C@H]6C5(C)C)OC[C@@H](OS(=O)(=O)[O-])[C@@H]4O)[C@H](O)[C@H]3O)OC[C@H]2O)O[C@H](CO)[C@H]1O.[Na+] (some centres undefined) [LNTERCEDENSIDE G]")
3.3
>>> numeric_value("CO[C@@H]1[C@@H](O)[C@H](O[C@@H]2[C@@H](O)[C@H](O[C@H]3[C@H](O)[C@@H](O)[C@H](O[C@H]4[C@H](O[C@H]5CC[C@]6(C)[C@@H]7CC[C@]89C(=O)O[C@@](C)(/C=C\\C=C(C)C)[C@@]8(O)[C@@H](OC(C)=O)C[C@@]9(C)C7=CC[C@H]6C5(C)C)OC[C@@H](OS(=O)(=O)[O-])[C@@H]4O)O[C@@H]3C)OC[C@H]2O)O[C@H](CO)[C@H]1O.[Na+] [LNTERCEDENSIDE H]")
3.2
>>> numeric_value("CO[C@@H]1[C@@H](O)[C@H](O[C@@H]2[C@@H](O)[C@H](O[C@H]3[C@H](O)[C@@H](O)[C@H](O[C@H]4[C@H](O[C@H]5CC[C@]6(C)[C@@H]7CC[C@]89C(=O)O[C@@](C)(/C=C\\C=C(C)C)[C@@]8(O)[C@@H](OC(C)=O)C[C@@]9(C)C7=CC[C@H]6C5(C)C)OC[C@@H](OS(=O)(=O)[O-])[C@@H]4O)O[C@@H]3CO)OC[C@H]2O)O[C@H](CO)[C@H]1O.[Na+] [LNTERCEDENSIDE D]")
4.1
